- System: MCF7
- experimental-protocol: Antiproliferative activity against human MCF7 cells after 72 hrs by MTT assay
- Format: functional
- details: MCF7, 72 h

| compound-smiles | units | op | GI50 |
| --- | --- | --- | --- |
| O=C(CCC12CC3CC(CC(C3)C1)C2)N1CCOCCOCCOCCOCCOCC1 | µM | = | 17 |
| C1COCCN(CC23CC4CC(CC(C4)C2)C3)CCOCCOCCN(CC23CC4CC(CC(C4)C2)C3)CCO1 | µM | = | 21 |
| C1COCCOCCOCCOCCOCCN1 | µM | > | 100 |
| C1COCC23CC4CC(C2)CC(COCCOCC25CC6CC(CC(CO1)(C6)O2)C5)(C4)O3 | µM | = | 13 |
| O=C(CC12CC3CC(CC(C3)C1)C2)N1CCOCCOCCOCCOCCOCC1 | µM | > | 100 |
| C1COCCOCCNCCOCCOCCN1 | µM | > | 100 |
| O=C(N1CCOCCOCCN(C(=O)C23CC4CC(CC(C4)C2)C3)CCOCCOCC1)C12CC3CC(CC(C3)C1)C2 | µM | = | 9 |
| C(CN1CCOCCOCCOCCOCCOCC1)CC12CC3CC(CC(C3)C1)C2 | µM | = | 6 |
| O=C(CCC12CC3CC(CC(C3)C1)C2)N1CCOCCOCCN(C(=O)CCC23CC4CC(CC(C4)C2)C3)CCOCCOCC1 | µM | = | 2 |
| C1COCCOCC23CC4CC(C2)CC(COCCOCCO1)(C4)O3 | µM | > | 100 |
